Test system: MDA-MB-231 breast
assay method text: NCI-60 one-dose screen, 48 h (100 = growth as untreated, 0 = no growth, -100 = all killed)
run conditions: 10 µM unless noted
Compounds without any hit were thinned out: in the full panel of roughly 83,000, 20% have a hit.
# note: boundary value 20% maps to criterion not met; growth below it maps to criterion met

compound	group
Cc1ccc(C(=O)N(CCCN)[C@@H](c2nc3cc(Cl)ccc3c(=O)n2Cc2ccccc2)C(C)C)cc1	criterion met
CCOC(=O)c1cc2c(n1Cc1cc(OC)cc(OC)c1Br)-c1nc(NC(C)=O)sc1CCC2	criterion not met
C#CCOCC1CN(C)C(=O)O1 (configuration not stated)	criterion not met
CCC(=C(c1ccc(OCCCN(C)C)cc1)c1ccc(OCCCN(C)C)cc1)c1ccc(Cl)cc1	criterion met
CC[C@@H]1NC(=O)[C@H]([C@H](O)[C@H](C)C/C=C/c2ccc(CN3C(=O)C(C)=C(C)C3=O)cc2)N(C)C(=O)[C@H](C(C)C)N(C)C(=O)[C@H](CC(C)C)N(C)C(=O)[C@H](CC(C)C)N(C)C(=O)[C@@H](C)NC(=O)[C@H](C)NC(=O)[C@H](CC(C)C)N(C)C(=O)[C@H](C(C)C)NC(=O)[C@H](CC(C)C)N(C)C(=O)CN(C)C1=O	criterion not met
Cn1ccnc1CN1CCSC(C(=O)Nc2ccccc2)C1 (configuration not stated)	criterion not met
